Values were extracted from patent US9120770B2.

This section lists EC50 readings for PDE4D3 (Homo sapiens, UniProt Q08499).

These solved cases illustrate the format of a correct answer.
structure_as_smiles=COc1ncc(Cn2cncn2)cc1-c1cccc(F)c1 outcome_measure=EC50 result_value="0.1 to 1 µM"
structure_as_smiles=CCOc1cccc(-c2cc(Cn3cnc(CF)n3)cnc2OC(F)F)c1 outcome_measure=EC50 result_value="0.1 to 1 µM"

Moving on to another compound below.
Q: Form field: EC50 recorded for FC(F)Oc1ncc(Cn2cncn2)cc1-c1cccc(Cl)c1 with PDE4D3 (Homo sapiens, UniProt Q08499) (enter value)
A: < 0.1 µM

----------
# system.tested: PDE4D3 (Homo sapiens, UniProt Q08499)
# Sequence (Q08499 1-673 isoform Q08499-2): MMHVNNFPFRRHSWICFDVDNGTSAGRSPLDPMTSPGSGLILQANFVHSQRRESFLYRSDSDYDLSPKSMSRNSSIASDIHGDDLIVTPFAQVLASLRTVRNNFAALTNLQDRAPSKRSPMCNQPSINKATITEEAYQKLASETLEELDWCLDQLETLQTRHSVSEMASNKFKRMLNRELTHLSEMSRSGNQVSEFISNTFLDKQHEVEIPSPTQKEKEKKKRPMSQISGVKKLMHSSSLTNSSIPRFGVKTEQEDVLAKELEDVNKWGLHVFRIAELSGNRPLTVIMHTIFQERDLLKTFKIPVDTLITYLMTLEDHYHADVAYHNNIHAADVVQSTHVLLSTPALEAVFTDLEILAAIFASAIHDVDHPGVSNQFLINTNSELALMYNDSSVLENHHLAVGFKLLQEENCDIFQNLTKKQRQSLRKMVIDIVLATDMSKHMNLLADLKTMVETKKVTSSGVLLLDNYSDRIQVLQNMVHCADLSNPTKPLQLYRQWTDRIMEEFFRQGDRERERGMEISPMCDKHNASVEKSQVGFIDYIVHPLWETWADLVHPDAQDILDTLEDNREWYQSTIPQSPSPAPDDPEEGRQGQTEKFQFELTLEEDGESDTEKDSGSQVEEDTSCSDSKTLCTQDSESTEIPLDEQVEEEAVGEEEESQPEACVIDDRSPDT
Listed here: items and their measured EC50.

molecule="COc1ncc(Cc2sc(C)nc2C)cc1-c1cccc(Cl)c1 [Example 66]" result_value="< 100 nM"
molecule="CCOc1ncc(Cn2ncnc2COC)nc1-c1cccc(OC(F)F)c1 [Example 190]" result_value="1000 to 10000 nM"
molecule="NCc1ncn(Cc2cnc(OC(F)F)c(-c3cccc(Cl)c3)c2)n1 [Example 240]" result_value="1000 to 10000 nM"
molecule="COc1ncc(Cn2cnc(C)n2)cc1-c1cccc(F)c1 [Example 151]" result_value="< 100 nM"
molecule="COc1ncc(Cn2cc(CO)nn2)nc1-c1cccc(OC(F)F)c1 [Example 267]" result_value="100 to 1000 nM"

Q: Give its EC50 value. Item: COc1ncc(Cc2ccccc2CO)cc1-c1cccc(Cl)c1 [Example 37]
A: 100 to 1000 nM

Q: Give its EC50 value. Item: CCOc1ncc(Cc2ccc(C#N)nc2)nc1-c1cccc(OC(F)F)c1 [Example 103]
A: < 100 nM

----------
# system.tested: PDE4D3 (Homo sapiens)
pEC50: −log10 of the molar value.
outcome.measure: pEC50

These solved cases illustrate the format of a correct answer.
molecule="COc1ncc(Cn2cncn2)cc1-c1cccc(C)n1 [Example 11]" result_value="< 5.00"
molecule="COc1ncc(Cc2ccc(C(F)(F)F)nc2)cc1-c1cccc(Cl)c1 [Example 49]" result_value="6.00 to 7.00"
molecule="COc1ncc(Cc2ccnc(C#N)c2)cc1-c1cccc(Cl)c1 [Example 62]" result_value="5.00 to 6.00"
molecule="COc1ncc(Cn2cnc(N)n2)cc1-c1cccc(Cl)c1 [Example 218]" result_value="6.00 to 7.00"

Moving on to another molecule below.
Q: Form field: pEC50 recorded for Cc1cn(Cc2cnc(OC(F)F)c(-c3cccc(Cl)c3)c2)cn1 [Example 154] with PDE4D3 (Homo sapiens) (enter value)
A: 6.00 to 7.00

----------
This section lists EC50 readings for PDE4D3 (Homo sapiens).

These solved cases illustrate the format of a correct answer.
structure_as_smiles=FC(F)Oc1ncc(Cc2ccc(OCC3CC3)nc2)cc1-c1cccc(Cl)c1 outcome_measure=EC50 result_value="100 to 1000 nM"
structure_as_smiles=COc1ncc(Cc2ccc(NC(=O)NC3COC3)cc2)cc1-c1cccc(Cl)c1 outcome_measure=EC50 result_value="1000 to 10000 nM"
structure_as_smiles=FC(F)Oc1ncc(Cn2cnc(C3CC3)n2)cc1-c1cccc(Cl)c1 outcome_measure=EC50 result_value="100 to 1000 nM"
structure_as_smiles=COc1ncc(Cc2cnc(N)nc2)cc1-c1cccc(F)c1 outcome_measure=EC50 result_value="< 100 nM"
structure_as_smiles=COc1ncc(Cn2cnc(N)n2)cc1-c1cccc(OC(F)F)c1 outcome_measure=EC50 result_value="< 100 nM"

Moving on to another compound below.
Q: Form field: EC50 recorded for Nc1ncc(Cc2cnc(OC(F)F)c(-c3cccc(Cl)c3)c2)s1 with PDE4D3 (Homo sapiens) (enter value)
A: < 100 nM

----------
pEC50: −log10 of the molar value.
This section lists pEC50 readings for PDE4D3 (Homo sapiens, UniProt Q08499).

These solved cases illustrate the format of a correct answer.
molecule="COc1cccc(-c2cc(Cn3cncn3)cnc2OC(F)F)c1 [Example 175]" system_tested="PDE4D3 (Homo sapiens, UniProt Q08499)" result_value="< 5.00"
molecule="CCOc1ncc(Cn2cnc(C(F)(F)F)n2)cc1-c1cccc(OC(F)F)c1 [Example 163]" system_tested="PDE4D3 (Homo sapiens, UniProt Q08499)" result_value="> 7.00"
molecule="O=C(O)c1ccc(Cc2cnc(OC(F)F)c(-c3cccc(Cl)c3)c2)cc1 [Example 280]" system_tested="PDE4D3 (Homo sapiens, UniProt Q08499)" result_value="5.00 to 6.00"
molecule="COc1ncc(Cn2cnc(CO)n2)nc1-c1cccc(OC(F)F)c1 [Example 211]" system_tested="PDE4D3 (Homo sapiens, UniProt Q08499)" result_value="6.00 to 7.00"

Q: Give its pEC50 value. Item: COc1ccc(Cc2cnc(OC)c(-c3cccc(Cl)c3)c2)cn1 [Example 32]
A: > 7.00

Q: Give its pEC50 value. Item: COc1cccc(-c2cc(Cc3cnc(N)nc3)cnc2OC(F)F)c1 [Example 29]
A: > 7.00

----------
# system.tested: PDE4D3 (Homo sapiens, UniProt Q08499)
outcome.measure: EC50

structure_as_smiles=OCc1cn(Cc2cnc(OC(F)F)c(-c3cccc(Cl)c3)c2)cn1 result_value="< 0.1 µM"
structure_as_smiles=COc1ncc(Cn2cnc(CF)n2)cc1-c1cccc(OC(F)F)c1 result_value="< 0.1 µM"
structure_as_smiles=CCOc1ncc(Cn2cc(CO)nn2)nc1-c1cccc(Cl)c1 result_value="0.1 to 1 µM"

Moving on to another compound below.
Q: Form field: EC50 recorded for CCOc1ncc(Cc2cnc(C(N)=O)nc2)cc1-c1cccc(OC(F)F)c1 with PDE4D3 (Homo sapiens, UniProt Q08499) (enter value)
A: < 0.1 µM
